Procedure Text: Cell Viability - LYMP2-009 (AID 968);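 further: cells exposed to compound for 24 h at 37 °C; nearly all actives have a fitted effect of over 55% in size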
Condition Description: LYMP2-009 lymphoblastoid cell viability; series mostly up to 92.2 µM
Results filed as inconclusive are left out. The source made the active and inactive calls. The call rests on the fitted dose curve; in most records, active means well fitted cell-killing curve with a large enough effect; inconclusive means small, poorly fitted or top-dose-only effect; inactive means flat fitted curve, though single readings scatter.
Outcome codes: active, inactive

INSERT INTO measurements (molecule, category_label) VALUES
  ('OCCCBr', 'inactive'),
  ('Nc1ccc(Cl)cc1', 'inactive'),
  ('CN(C)[C@@H]1C(=O)C(C(N)=O)=C(O)[C@@]2(O)C(=O)C3=C(O)c4c(O)cccc4[C@@](C)(O)[C@H]3[C@H](O)[C@@H]12', 'inactive'),
  ('O=[N+]([O-])c1cc([N+](=O)[O-])c2ccccc2c1', 'inactive'),
  ('Nc1ccc([N+](=O)[O-])cc1', 'inactive'),
  ('c1cc2ccc3cccc4ccc(c1)c2c34', 'inactive'),
  ('O=[N+]([O-])c1c2ccccc2cc2ccccc12', 'inactive'),
  ('Nc1ccc(Cl)cc1N', 'inactive'),
  ('C1CCC(NC2CCCCC2)CC1', 'inactive'),
  ('CCOP(=O)(NC(C)C)Oc1ccc(SC)c(C)c1 (configuration not stated)', 'inactive'),
  ('O=C(O)COc1ccccc1', 'inactive'),
  ('CC(=O)[O][Hg][c]1ccccc1', 'active'),
  ('CCCCOC(=O)c1ccccc1C(=O)OCc1ccccc1', 'inactive'),
  ('C=CC(=O)NCNC(=O)C=C', 'inactive'),
  ('CCOCCOC(C)=O', 'inactive'),
  ('CCCCC(CC)COC(=O)c1ccccc1C(=O)OCC(CC)CCCC (configuration not stated)', 'inactive'),
  ('O=C(O)C(Cl)Cl', 'inactive');

* * *

Procedure Text: qHTS for identification of novel therapeutic agents for treatment of microphthalmiaassociated transcription factor (MiT) renal cell carcinoma (RCC) (AID 1963991);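 further: curves scaled with 100% = DMSO viability and 0% = empty wells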
Condition Description: TFE3-RCC viability, CellTiter-Glo, 48 h; measured here: UOK124 Z-AUC; stronger effect = lower value
Results filed as inconclusive are left out.
Measured Metric: z-score

INSERT INTO measurements (structure_string, measured_metric, numeric_result) VALUES
  ('C[C@@]12OC(=O)[C@]1([C@@H](O)[C@@H]1C=CCCC1)NC(=O)[C@H]2CCCl', 'z-score', -3.3),
  ('CC[C@@H](C(N)=O)N1CCCC1=O', 'z-score', 0.779),
  ('C[C@H]([C@H](O)CCC(C)(C)O)[C@H]1CC[C@@]2(O)C3=CC(=O)[C@@H]4C[C@@H](O)[C@@H](O)C[C@]4(C)[C@@H]3CC[C@]12C', 'z-score', 0.683),
  ('C#C[C@]1(O)C=C[C@@H]2[C@@H]3CCC4=CC(=O)CC[C@@H]4[C@H]3CC[C@@]21CC', 'z-score', 0.666),
  ('CC[C@@]1(O)C(=O)OCc2c1cc1n(c2=O)Cc2cc3ccccc3nc2-1', 'z-score', -3.04),
  ('CC(=Cc1csc(C)n1)[C@@H]1C[C@H]2O[C@@H]2CCC[C@H](C)[C@@H](O)[C@@H](C)C(=O)C(C)(C)[C@@H](O)CC(=O)O1', 'z-score', -1.59),
  ('C[C@@H]1CC[C@H]2[C@@H](C)C(=O)O[C@@H]3O[C@@]4(C)CC[C@H]1[C@]32OO4', 'z-score', 0.74),
  ('CC1=NN=C(c2ccc(N)cc2)c2cc3c(cc2C1)OCO3', 'z-score', 0.871);
